- Test system: SK-OV-3
- EXPERIMENTAL PROTOCOL: NCI tumour cell line growth inhibition, 48 h
Activity calls are given as the source filed them. No stated cut-off is given here; in the data, active = GI50 up to about 1.1 µM and inactive = higher.
Form entry, call: pick from TRUE = active, FALSE = inactive

Fill in: this test's call for O=CN1CCN(C(=O)c2ccc(Cl)cc2)C1=S is ___
FALSE

GET /call?item= CC1(C)N=c2c(ncn2-c2ccccc2)=C(C(N)=O)N1 returns the recorded outcome of this test.
FALSE

In this assay, the call recorded for C(/C=N/c1ccccc1)=C(/Nc1ccccc1)C12CC3CC(CC(C3)C1)C2 was what?
FALSE

GET /call?item= CCOC(=O)C1(C)C2=CC=C(O2)C(C)(C)C2=CC=C(O2)C(C)(C)C2=CC=C(O2)C(C)(C)C2=CC=C1O2 returns the recorded outcome of this test.
FALSE

Name the outcome recorded for O/N=C(\C=N\O)c1ccc2c(c1)Sc1ccccc1O2 in the assay.
FALSE

For Cn1nc(-c2ccccc2)c(C(=O)/C=C/c2ccccc2)c(N2CCCCC2)c1=O , what call appears in the results of this test?
FALSE

Identify the outcome logged in this assay for the compound shown: Cn1c(=O)c2[nH]c(CCC(=O)O)nc2n(C)c1=O
FALSE

Answer briefly: the call reported for CCOc1ccccc1NC(=O)C(=O)C1C(=O)Nc2ccccc2[S+]1[O-] (stereo unspecified) in this assay.
FALSE

Recorded test outcome, item COC(=O)C(C(=O)C(=O)Nc1nnc(S)[nH]1)c1csc(N)n1 (stereo unspecified)
FALSE

Call for entry O=[N+]([O-])c1ccc(/C=N/Nc2nnc3c4ccccc4c4ncccc4c3n2)o1 :
FALSE

Identify the outcome logged in this assay for the compound shown: C=CCC1(c2ccc(OC)cc2)C=CC(=O)CC1 (stereo unspecified)
FALSE

Each compound tested received a call. Report the one for Cc1cc(-c2nc3ccc(F)cc3s2)ccc1NC(=O)[C@H](C)N .
FALSE

For CC(C)NC(C)Cc1ccccc1 (stereo unspecified) , which call appears in the assay record?
FALSE

Hi, do you know how COCCOC1=C(Cl)C(=O)c2c(O)ccc(O)c2C1=O came out in this test?
FALSE

Outcome logged for C/C(=N/NC(=S)N(Cc1ccccn1)Cc1ccccn1)c1cnccn1 in this assay:
TRUE

Recorded test outcome, item OCCOCn1nc(-c2ccccc2)nc1-c1cnccn1
FALSE

Any idea what this test logged for CN(C)[C@@H]1C(O)=C(C(=O)NCNCCCC(=O)O)C(=O)[C@@]2(O)C(O)=C3C(=O)c4c(O)cccc4[C@@](C)(O)[C@H]3C[C@@H]12 ?
FALSE

Give the logged outcome of this assay for the following compound: CC(C)c1ccc2c(c1)CCC1C(C)(CN)CCCC21C (stereo unspecified)
FALSE

Tell me the assay call for COc1cc(C(=O)N(C)N(C)C)cc(OC)c1OC please.
FALSE

Returns: the outcome recorded for C[C@]12CC[C@H]3[C@@H](CCC4=C[C@@H](N5CCCC5)CC[C@@]43C)[C@@H]1C/C(=C\c1ccncc1)[C@@H]2O in this assay.
FALSE

For O=C1CN(c2ccc(Cl)cc2)C(=O)CN1CCN1CC(=O)N(c2ccc(Cl)cc2)CC1=O , which call appears in the assay record?
FALSE

* * *

- System: A498
- EXPERIMENTAL PROTOCOL: NCI tumour cell line growth inhibition, 48 h
The source made the active and inactive calls. No stated cut-off is given here; in the data, active = GI50 up to about 1.1 µM and inactive = higher.
RECORDED ENDPOINT: GI50

API: value(readout=GI50, system=A498) for record CN1c2ccc(Cl)cc2C(=O)NC1c1ccc([N+](=O)[O-])s1 (stereo not given)
14.8 µM (inactive)

Item CN1C(=O)N/C(=C\c2ccc(S(=O)(=O)N/N=C/c3ccccc3)cc2)C1=O with A498 - GI50?
> 100 µM (inactive)

Please provide the recorded GI50 for C1CCCCC2(CCCCCCCCC3(CCC1)SCCS3)SCCS2 , tested on A498.
> 100 µM (inactive)

Request body: readout GI50, system A498, query CC(C)[C@H](NC(=O)[C@@H](O)[C@H](N)Cc1ccccc1)C(=O)N[C@@H](Cc1ccccc1)C(=O)O . Return the value.
> 100 µM (inactive)

For the record COc1ccc(-c2c(C#N)c(=O)nc(SC)n2C2OCC(OC(C)=O)C(OC(C)=O)C2OC(C)=O)cc1 (stereo not given) , what value of GI50 is listed for A498?
62.1 µM (inactive)

Notebook entry, A498 assay: GI50 of CC1=CC(c2ccccc2)n2c(nc3cc4ccccc4cc32)N1 (stereo not given) = ?
> 100 µM (inactive)

Give recorded GI50 with A498 for the following molecule: C(/C=N/c1ccccc1)=C(/Nc1ccccc1)C12CC3CC(CC(C3)C1)C2
23.8 µM (inactive)

What reported GI50 corresponds to CCCCCCCCCCCCCCCCCCNC(=S)N/C=C1\C(=O)Nc2ccccc2C1=O on A498?
21.4 µM (inactive)

Query for A498: what GI50 does the record show for Cc1cc(Br)cc(C)c1NC(=O)C(=O)Nn1c(S)nc2ccccc2c1=O ?
> 100 µM (inactive)

// fetch A498 GI50 for NC(=O)c1coc(C2OC(CO)C(O)C2O)n1 (stereo not given)
> 100 µM (inactive)

* * *

- Tested on: M19-MEL
- EXPERIMENTAL PROTOCOL: NCI tumour cell line growth inhibition, 48 h
The source made the active and inactive calls. Rule as the data show it: active = GI50 up to about 1.1 µM and inactive = higher. Where a SMILES comes first, the peptide text is derived from it. [ ]: non-standard residue; d: D form. The star is where a group is joined. ξ: configuration not given here. NMeF = CN[C@@H](Cc1ccccc1)C(=O)O; NMeV = CN[C@H](C(=O)O)C(C)C; ξNMeN = CNC(CC(N)=O)C(=O)O; NMeA = CN[C@@H](C)C(=O)O; ξNMeV = CNC(C(=O)O)C(C)C; Boc = CC(C)(C)OC(=O)*
In this exercise, the only acceptable responses are 1 = active, 0 = inactive

Test call for this compound, please: CCCCCCCCCCCCC(CCCCCCCCCCCC)OP(=O)(O)O
0

Just curious, what result did CNc1cccc(-c2cc(O)c3cc4c(cc3n2)OCO4)c1 get here?
1

Each compound tested received a call. Report the one for O=C(Nc1cc(Cl)c(Cl)cc1Cl)C(=O)C1C=CCS1(=O)=O (stereo not drawn) .
0

Outcome? O=[As](O)(O)c1cc(/N=N/c2ccc(-c3ccc(/N=N/c4cc([As](=O)(O)O)c(O)cc4O)cc3)cc2)c(O)cc1O
0

Please state the recorded outcome for this compound: COC(=O)[C@H](C)N(C)C(=O)C(CC(N)=O)N(C)C(=O)[C@H](Cc1ccccc1)N(C)C(=O)[C@@H]1CCCN1C(=O)[C@H](C(C)C)N(C)C(=O)C(C(C)C)N(C)C(=O)[C@@H](NC(=O)OC(C)(C)C)C(C)C (stereo partly drawn) (Boc-V[ξNMeV][NMeV]P[NMeF][ξNMeN][NMeA]-OMe)
0

Please let me know the test result on file for COc1ccc(CC(=O)NCCc2ccc(OC)c(OC)c2OC)cc1 .
0

What classification did Cc1cccc(NC(=O)C(=O)C(C(=O)c2ccc3ccccc3c2)C2OC(=O)c3ccccc32)c1C (stereo not drawn) end up with in this test?
0

Recorded test outcome, item Cc1cc(C)n(-c2ccnc3cc(Cl)ccc23)n1
0

* * *

- System: SNB-75
- EXPERIMENTAL PROTOCOL: NCI tumour cell line growth inhibition, 48 h
Activity calls are given as the source filed them. No stated cut-off is given here; in the data, active = GI50 up to about 1.1 µM and inactive = higher.
Respond only with the outcome that fits, drawn from TRUE (active), FALSE (inactive)

# outcome recorded in this test, key = CC(OC(=O)C(CC(=O)OC(C)(C)C)NC(=O)OC(C)(C)C)C(=O)OCc1ccccc1 (configuration not stated)
FALSE

What call does the record list for C[C@]12CC[C@@H]3c4cc(OCC(F)(F)F)c(O)cc4C(=O)C[C@H]3[C@@H]1CC[C@@H]2O ?
FALSE

Record request — test call for O=c1cccccc1NCCNc1cccccc1=O
FALSE

# outcome recorded in this test, key = COc1cc(C(C#N)NNC(=O)c2ccccc2O)ccc1O (configuration not stated)
TRUE

// param item: COc1ccc(C(SC2C(O)C(CO)OC2n2ccc(N)nc2=O)(c2ccccc2)c2ccc(OC)cc2)cc1 (configuration not stated) ; yields the recorded call
FALSE

Recorded test call requested for Cc1cc(N(CCC#N)CCC#N)ccc1/C=C1N=C(/C=C/c2ccccc2)OC(=O)N\1
FALSE

# outcome recorded in this test, key = CN1c2ccc(Cl)cc2C(=O)NC1c1ccc([N+](=O)[O-])s1 (configuration not stated)
FALSE

Tell me the recorded outcome of this test for C[C@@H](Cl)[C@H]1CCCN(Cc2ccc(Br)cc2)C1 .
FALSE

For NCCCCN(CCCN)Cc1ccccc1 , which call appears in the assay record?
FALSE

Tell me the assay call for Cc1cc(C)nc(NS(=O)(=O)c2ccc(NC(=O)c3c4ccccc4nc4ccccc34)cc2)n1 please.
FALSE

Per the assay record, what outcome was assigned to Cc1ccc(C(C)C)c(OCC(=O)N/N=C/c2c[nH]c3ccc(Br)cc23)c1 ?
FALSE

// return assay outcome for COc1ccc(CCNCCCC2c3ccccc3-c3ccccc32)cc1OC
FALSE

Outcome logged for S=C(N/N=C/c1ccccn1)Nc1ccc(Cl)cc1 in this assay:
TRUE

Can you look up the reported call for CC1(C)CC(=O)C2=C(C1)C(c1ccccc1Cl)C1C(=O)CC(C)(C)CC1(O)O2 (configuration not stated) for me?
FALSE

Kindly provide the recorded test outcome for the following compound: Cc1ccc(C)n2c1nc1ccc3ccccc3c12
FALSE

Which result was noted for this compound in the test: CC1CNC(c2ccc(-c3nc(-c4ccc(C5=NC(C)CN5)cc4)nc(N(C)C)n3)cc2)=N1 (configuration not stated)
FALSE

Lab log entry: CC(C)=CCc1c(OC(=O)c2c(C)cc(O)cc2O)cc(CO)c(CO)c1O — outcome as called in the assay?
FALSE

Could you please tell me the result logged for COc1cc(C(=O)N(C)N(C)C)cc(OC)c1OC in this assay?
FALSE

Any idea what this test logged for Cc1cc(NC2=CC(=O)C(=O)c3ccccc32)no1 ?
FALSE

Called result for COC(=O)C1C=CCC2CCCCC21N1CCCC1 (configuration not stated)
FALSE

Which outcome was assigned to CCOC(=O)NN(C(=O)OCC)C(C(=O)c1ccc(Cl)cc1)=C1NCCN1 in this test?
FALSE

For this compound, state the assay outcome: Cc1cccc(Cl)c1NC(=O)c1cccc([N+](=O)[O-])c1O
FALSE
